- study_target: Adenosine receptor A1 (Homo sapiens)
- procedure_details: Displacement of […] from human adenosine A1 receptor expressed in CHO cells at 10 uM
- Type: cell-based
readout_kind: inhibition (%)

(1) Nc1nc(OCCn2nnc3ccccc32)nc2c1ncn2[C@@H]1O[C@H](CO)[C@@H](O)[C@H]1O
(2) COc1ccc2c(c1)c(CCOc1nc(N)c3ncn([C@@H]4O[C@H](CO)[C@@H](O)[C@H]4O)c3n1)c(C)n2S(=O)(=O)c1ccc(C)cc1
In the pair 1 and 2 , the larger recorded inhibition belongs to which? Selection: enter the item's label.
1

(I) Cc1ccc(S(=O)(=O)n2cc(CCOc3nc(NC(=N)N)c4ncn([C@@H]5O[C@H](CO)[C@@H](O)[C@H]5O)c4n3)c3ccccc32)cc1
(II) Nc1nc(OCCn2cnc3ccccc32)nc2c1ncn2[C@@H]1O[C@H](CO)[C@@H](O)[C@H]1O
In the pair I and II , the larger recorded inhibition belongs to which? Lab log: write the label of the selected item as the result.
I
(I: 52%, II: 18%)

The measured values listed here are drawn from ChEMBL document CHEMBL1144471.
